OUTCOME MEASURE: melting point (°C)

I = Cn1cnc([N+](=O)[O-])c1Sc1ncnc2nc[nH]c12
II = COC(=O)c1ccc(Cl)cc1N
When I and II are compared, which has the higher number for melting point? Give the label of your selection. I
(I: 244 °C, II: 67 °C)

a = CCC1Nc2cc(Cl)c(S(N)(=O)=O)cc2S(=O)(=O)N1 (stereo unspecified)
b = C=C(Br)c1ccccc1
c = COc1cc(OC)nc(NC(=O)NS(=O)(=O)Nc2ccccc2C(=O)C2CC2)n1
d = CC(=O)CCc1ccc2c(c1)NC(C)CC2 (stereo unspecified)
Order these by melting point, descending, and give the full ranking. Please express your ranking as an ordered list of the labels. a, c, d, b

P = Clc1ccc(-c2nc3c4ccccc4ccn3n2)cc1
Q = Cc1cccc(C)c1C(=O)O
Given the listed items, does P or Q have the lesser reported melting point? Give the label of your selection. Q
(Q: 116 °C, P: 238 °C)

1 = c1ccc(-c2cccc(-c3ccccc3)n2)cc1
2 = Clc1cc2c(oc3c(Cl)cccc32)c(Cl)c1Cl
When 1 and 2 are compared, which has the higher number for melting point? Give the label of your selection. 2
(2: 190 °C, 1: 78 °C)

a = NC(=O)CSSCC(N)=O
b = OC1Cc2ccccc2C1
Given the listed items, does a or b have the lesser reported melting point? Give the label of your selection. b

A = c1ccc(CC(c2ccccc2)c2ccccc2)cc1
B = O=C(O)CS(=O)(=O)O
Given the listed items, does A or B have the lesser reported melting point? Give the label of your selection. A

1 = C=CCCCCCCCCC(=O)OCC
2 = O=Cc1c[nH]c2ccc(OCc3ccccc3)cc12
3 = CCc1cc(C(N)=S)ccn1
Order these by melting point, descending, and give the full ranking. Please express your ranking as an ordered list of the labels. 2, 3, 1

Where these numbers come from: a melting point compilation (Tetko et al.)
